Assay: Biodegradability, manometric respirometry test (OECD 301F)
Design: key: A compound is readily biodegradable, if the pass level is reached within 10 days within the 28-day period of the test; If the pass level is obtained after 28-day period of the test, the compound can be classified as inherently biodegradable
Settings: 28-day test, 10-day window
MEASUREMENT LABEL: result (biodegradable class; cell wraps to 'biodegradable')

>>> print(df.to_string())
                  line_notation      result
0     CC/C=C\CCOc1ccc(C=O)cc1OC     readily
1  CC(=O)CCc1ccc(OCCC=C(C)C)cc1     readily
2     CCOc1cc(C=O)ccc1OC1CC=CC1  inherently
3  CC/C=C\CCOc1ccc(CCC(C)=O)cc1     readily
4    CCOc1cc(C=O)ccc1OCCC=C(C)C  inherently
5    CC/C=C\CCOc1ccc(C=O)cc1OCC  inherently
6       CC=CCCOc1ccc(C=O)cc1OCC  inherently
